Each entry below carries its recorded EC50 (read off the curve).
Target: T1, human ROR1 on cells (HEK293T-hROR1, PANC-1, A549) (human, UniProt Q01973 30-937)
T1 construct: whole, on cells; one molecule for the three cell lines; also called huROR1; cell surface ROR1
T1 sequence (Q01973 30-937): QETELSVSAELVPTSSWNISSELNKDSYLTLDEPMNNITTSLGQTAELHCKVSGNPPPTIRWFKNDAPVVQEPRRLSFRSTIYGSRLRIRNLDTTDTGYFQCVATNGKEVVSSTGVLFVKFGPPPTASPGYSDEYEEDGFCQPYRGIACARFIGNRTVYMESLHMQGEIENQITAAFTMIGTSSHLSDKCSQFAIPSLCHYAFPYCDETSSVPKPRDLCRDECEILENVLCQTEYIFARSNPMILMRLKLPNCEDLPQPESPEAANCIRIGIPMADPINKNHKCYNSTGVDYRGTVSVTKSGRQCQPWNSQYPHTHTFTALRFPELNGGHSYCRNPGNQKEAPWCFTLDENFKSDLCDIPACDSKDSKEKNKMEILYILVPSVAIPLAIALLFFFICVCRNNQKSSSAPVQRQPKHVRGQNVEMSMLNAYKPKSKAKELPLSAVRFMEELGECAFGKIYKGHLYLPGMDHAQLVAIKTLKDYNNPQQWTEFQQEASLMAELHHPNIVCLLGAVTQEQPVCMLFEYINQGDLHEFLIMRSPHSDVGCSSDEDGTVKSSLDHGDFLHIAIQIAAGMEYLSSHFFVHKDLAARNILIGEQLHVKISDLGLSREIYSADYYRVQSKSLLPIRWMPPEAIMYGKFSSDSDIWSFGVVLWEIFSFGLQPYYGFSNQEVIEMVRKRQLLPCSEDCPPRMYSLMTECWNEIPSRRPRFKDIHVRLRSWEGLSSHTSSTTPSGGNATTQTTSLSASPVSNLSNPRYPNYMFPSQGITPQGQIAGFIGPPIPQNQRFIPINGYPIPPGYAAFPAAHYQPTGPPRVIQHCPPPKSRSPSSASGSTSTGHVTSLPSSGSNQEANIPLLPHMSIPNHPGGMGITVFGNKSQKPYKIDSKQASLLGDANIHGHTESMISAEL
Assay: flow cytometry on PANC-1 cells, MFI (FITC-A Median)

Example binders with recorded EC50 (read off the curve):
PR000374 (antibody, human IgG1, kappa, V domains shown, positive control; also called Bench marker 1) VH: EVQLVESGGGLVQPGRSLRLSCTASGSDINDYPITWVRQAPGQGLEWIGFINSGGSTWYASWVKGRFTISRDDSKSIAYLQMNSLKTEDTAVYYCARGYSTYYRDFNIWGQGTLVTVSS VL: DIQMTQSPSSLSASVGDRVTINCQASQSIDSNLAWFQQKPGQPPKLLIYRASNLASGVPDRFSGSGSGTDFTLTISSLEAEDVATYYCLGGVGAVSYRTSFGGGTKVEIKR ... ~8 nM
PR005338 (antibody, human IgG1, V domains shown, HCAb (heavy chain-only, human IgG1 Fc), no light chain) VH: EVQLVESGGGLVKPGGSLRLSCAASGFTFSDYYMSWIRQAPGKGLEWISYISSSGTTIHYADSVKGRFTISRDNAKNSLYLQMNSLRTEDTAVYYCARDAPSSNSDWVSLQFDYWGQGTLVTVSS ... ~7 nM
PR005351 (antibody, human IgG1, V domains shown, HCAb (heavy chain-only, human IgG1 Fc), no light chain) VH: QVQLVESGGGLVKPGGSLRLSCAASGFKLSDFQMSWIRQAPGKGLEWVAYIDTNGSTRYYAESVKGRFTLSRDNVKNSLNLQMNGLRAEDTALYYCARIPSYTSSWYEDFDHWGQGTLVTVSS ... ~20 nM

Now consider a different binder.
Input line: Name the reported EC50 (read off the curve) value associated with the binder PR005344 (antibody, human IgG1, V domains shown, HCAb (heavy chain-only, human IgG1 Fc), no light chain) VH: EVQLVESGGGLVKPGGSLRLSCAASGFTFSDYYMSWIRQAPGKGLEWISYISNSSSSISYANSVKGRFTVSRDNAKNSLYLQMNSLRAEDTALYYCARSPRGAFYEDFDYWGQGTLVTVSS
Output line: ~20 nM
